The measurements presented in this section are drawn from ChEMBL document CHEMBL1201862.

tested on: Hs-578T; assay: NCI tumour cell line growth inhibition, 48 h
The source made the active and inactive calls. Cut-off read from the data, not from the text of the source: active = GI50 up to about 1.1 µM and inactive = higher.
Pick from true (active), false (inactive) when you respond.

Worked cases, answers included:
molecule: O=C(c1ccccc1)c1c(C(F)(F)F)[n+]([O-])c2cc(Cl)c(Cl)cc2[n+]1[O-]
study.system: Hs-578T
category.label: true

molecule: N#C/C(=C\c1ccc([N+](=O)[O-])o1)c1n[nH]c(Cc2ccccc2)n1
study.system: Hs-578T
category.label: false

molecule: Cc1ccc(S(=O)(=O)N2CCSCCN(S(=O)(=O)c3ccc(C)cc3)CCN(S(=O)(=O)c3ccc(C)cc3)CC2)cc1
study.system: Hs-578T
category.label: false

Recorded test call requested for COc1cc2nncc(SCc3ccc(Cl)c(Cl)c3)c2cc1OC
false

Recorded test call requested for C=CCCCC1SC2=C(CC)CCCN2C1=O (configuration not stated)
false

Recorded test call requested for COc1ccc2c(-c3csc(-c4c[nH]c5ccc(Br)cc45)n3)c[nH]c2c1
false

Recorded test call requested for O=C(NC(N1CCN(c2cc3c(cc2F)c(=O)c(C(=O)O)cn3C2CC2)CC1)(C(F)(F)F)C(F)(F)F)c1ccccc1
false

Recorded test call requested for COc1ccc(-c2cc(-c3ccc(Nc4ccnc5cc(C(F)(F)F)ccc45)cc3)nc(N)c2C#N)c2ccccc12
false

Recorded test call requested for CCOC(=O)C1=CC(C)(C(=O)OCC)Nc2c(nc(OC)[nH]c2=O)N1 (configuration not stated)
false

Recorded test call requested for COC(=O)C1Cc2c(OC)ccc(OC)c2C(O)C1C(=O)OC (configuration not stated)
false

Recorded test call requested for NC(=O)N/N=C1/CCC(O)CC1CC(=O)O (configuration not stated)
false

Recorded test call requested for Cc1ccc2c(c1)C(=O)C1(C2)Cc2cccc(C)c2C1=O (configuration not stated)
false

Recorded test call requested for COC(=O)C[C@H]1[C@]2(C)C3=C(C)[C@H](c4ccoc4)CC3O[C@@H]2[C@@H]2OC(=O)[C@]3(C)CCC(=O)[C@@]1(C)[C@@H]23 (some centres not stated)
false

Recorded test call requested for Oc1nc2c(c(-c3cccc(Cl)c3)n1)COC/C2=C\c1cccc(Cl)c1
false

Recorded test call requested for CC1OC2OC3C(OCC(O)C3O)OC(=O)[C@]34CCC(C)(C)CC3C3=CCC5[C@@]6(C)C[C@H](O)[C@H](OC7OC(CO)C(O)C(O)C7OC7OCC(OC(=O)CC(C)(O)CC(=O)OC1C(O)C2O)C(O)C7O)[C@@](C)(CO)C6CC[C@@]5(C)[C@]3(C)CC4 (some centres not stated)
false

Recorded test call requested for O=C(Nc1ccc(Cl)cc1)c1cc(S(=O)(=O)Nc2nc3cccnc3[nH]2)c(SSc2cc(Cl)c(C(=O)Nc3ccc(Cl)cc3)cc2S(=O)(=O)Nc2nc3cccnc3[nH]2)cc1Cl
false

Recorded test call requested for CCOC(=O)OC1C(Br)C2CCC1(C)C2(C)C (configuration not stated)
false
